Biological target: T1, human CLDN9 protein (human, UniProt O95484 1-217)
T1 construct: whole, on cells; also called hCLDN9; CLND9
T1 sequence (looked up): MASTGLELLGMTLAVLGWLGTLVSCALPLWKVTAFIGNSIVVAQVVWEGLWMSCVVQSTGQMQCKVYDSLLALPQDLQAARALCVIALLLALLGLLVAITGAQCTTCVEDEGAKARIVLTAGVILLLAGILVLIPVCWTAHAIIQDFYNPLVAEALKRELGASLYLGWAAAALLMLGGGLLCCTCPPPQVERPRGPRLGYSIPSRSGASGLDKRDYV
Experiment: flow cytometry on cells overexpressing human CLDN9; 10 µg/mL purified antibody, Alexa 647 anti-mouse secondary; single point
quantityKind: MFI

- binder: "SC27.106 (antibody, V domains shown, also called SC27.106 mouse monoclonal anti-CLDN antibody) VH: EVQLQQSGPELVKPGASVKISCKTSGYTFTEYTMHWVKQSHGKSLEWIGGINPNNGGTNYNQKFKGKATLTVDKSSSTAYMELRSLTSEDSAVYYCARRLITYYAMDYWGQGTSVTVSS VL: DIQMTQSSSSFSVSLGDRVTITCKASEDIYNRLAWYQQKPGNAPRLLICGATSLETGVPSRFSGSGSGKDYTLSITSLQTEDVATYYCQQYWSTPLTFGAGTKLELK"
  MFI: 595

Req: Record request: MFI value, item SC27.105 mouse monoclonal anti-CLDN antibody (antibody, V domains shown) VH: EVQLQQSGPELVKPGASVKISCKASGYSFTGYYMNWVKQSPEKSLEWIGEINPSTGSTTYNQKFKAKATLTVDKSSSTAYMQLKSLTSEDSAVYYCARRDYYYGSGFYAMDYWGQGTSVTVSS VL: DVQMTQSPSSLSASLGERVSLTCQASQSVSNNLNWYQQTPGKAPRLLIYGASKLEDGVSSRFSGTGYGTDFTFTISSLEEEDVATYFCLQHRYLWTFGGGTKLEIK
Resp: 80

Req: # input binder: SC27.108 mouse monoclonal anti-CLDN antibody (antibody, V domains shown, also called SC27.109 (identical)) VH: QVQMQQSGAELVRPGTSVKVSCKASGYAFTNYLIEWVKQRPGQGLEWIGLINPGSGGTNYNEKFKGKATLTADKSSTTAYMQLSSLTSDDSAVYFCARRSPLGSWIYYAYDGVAYWGQGTLVTVSA VL: EIVLTQSPALMAASPGEKVTITCSVSSSISSSNLHWYQQKSGTSPKLWIYGTSNLASGVPVRFSGSGSGTSYSLTISNMEAEDAATYYCQQWSSYPHTFGGGTKLEIK ; wanted: its MFI
Resp: 86

Req: Could you share which MFI value was measured for SC27.104 mouse monoclonal anti-CLDN antibody (antibody, V domains shown) VH: EVQLQQSGPELVKPGASVKISCKTSGYTFTEYTVHWVKQSHGKSLEWIGGVYPKNGDTTYNQKFRGKATLTVDKSSNTAYMELRSLTSEDSAVYYCTGKDGYDGFAYWGQGTLVTVSA VL: DIQMTQSSSSFSVSLGDRVTITCKASEDIYNRLAWYQQKPGNAPRLLISGATSLETGVPSRFSGSGSGKDYTLSITSLQTEDVATYYCQQYWSNPPTFGGGTKLEIK ?
Resp: 7230

Req: Bench note: what MFI did SC27.201 mouse monoclonal anti-CLDN antibody (antibody, V domains shown) VL: DIQMTQSSSSFSVSLGDRVTITCKASEDIYNRLAWYQQKPGNAPRLLISGATSLEAGVPSGFSGSGSGKDYTLSITSLQTEDVATYYCQQYWSTPPTFGGGTKLELK V domain: EVQLQQSGPELVKPGASVKISCKTSGYTFTENIRHWVKQSRGKSLEWIGTINPNNGETRYNQKFKGKATLTVDKSSSTAYMELRSLTSEDSAVYYCTRGITKSPYGMDYWGQGTSITVSS show?
Resp: 7100

Req: Could you tell me which MFI is on file for SC27.204 mouse monoclonal anti-CLDN antibody (antibody, V domains shown) VH: EVKVLESGGGLVQPGGSLKLSCAASGFDFSRYWMSWVRQAPGKGLEWIGEINPDSSTINYTPSLKAKFIISRDNAKNTLYLQMSKVRSEDTALYYCTGPAYWGQGTLVTVSA VL: DIVMTQSQKFMSTSVGDRVSVACKAGQNVGTSVAWYQQKPGHSPKSLIYSASYRYSGVPNRFTGSGSGTDFTLTISNVQSEDLADYFCQQYITYPYTFGGGTKLEII ?
Resp: 23000

The measured values listed here are drawn from patent US20190077876A1.
